# Test system: Mycobacterium tuberculosis
# assaySummary: Antimycobacterial activity against Mycobacterium tuberculosis with deazaflavin-dependent nitroreductase mutant under anaerobic condition
# Assay type: functional
metricName: MAC (µM)

>>> quantitativeresult("O=[N+]([O-])c1cn2c(n1)OC[C@@H](O)C2")
500
>>> quantitativeresult("O=[N+]([O-])c1cnc2n1C[C@H](OCc1ccc(OC(F)(F)F)cc1)CO2")
62.5

====

# Test system: Mycobacterium tuberculosis
# assaySummary: Antimycobacterial activity against Mycobacterium tuberculosis with deazaflavin-dependent nitroreductase mutant under anaerobic condition
# Type: functional
In this section, each of the molecules is paired with its reported MAC.
metricName: MAC (µM)

>>> quantitativeresult("CO[C@@H]1COc2nc([N+](=O)[O-])cn2C1")
250
>>> quantitativeresult("O=[N+]([O-])c1cn2c(n1)CC[C@@H](OCc1ccc(OC(F)(F)F)cc1)C2")
250
>>> quantitativeresult("O=[N+]([O-])c1cnc2n1C[C@H](O)CO2")
125
>>> quantitativeresult("COc1nc([N+](=O)[O-])cn1CCOCc1ccc(OC(F)(F)F)cc1")
250
>>> quantitativeresult("Cc1ncc([N+](=O)[O-])n1CCOCc1ccc(OC(F)(F)F)cc1")
125
>>> quantitativeresult("O=[N+]([O-])c1cn2c(n1)C=C[C@@H](OCc1ccc(OC(F)(F)F)cc1)C2")
62.5
